molecular target: HDAC6 (Homo sapiens); assay: Human HDAC enzyme inhibitor Fluor-de-Lys assay, HDAC6; format: biochemical; conditions: 1.3 nM enzyme, 2.5 μM substrate BML-KI104, 3 h pre-incubation, 60 min reaction; read-out: HDAC6_IC50
Sequence (Q9UBN7 whole entry): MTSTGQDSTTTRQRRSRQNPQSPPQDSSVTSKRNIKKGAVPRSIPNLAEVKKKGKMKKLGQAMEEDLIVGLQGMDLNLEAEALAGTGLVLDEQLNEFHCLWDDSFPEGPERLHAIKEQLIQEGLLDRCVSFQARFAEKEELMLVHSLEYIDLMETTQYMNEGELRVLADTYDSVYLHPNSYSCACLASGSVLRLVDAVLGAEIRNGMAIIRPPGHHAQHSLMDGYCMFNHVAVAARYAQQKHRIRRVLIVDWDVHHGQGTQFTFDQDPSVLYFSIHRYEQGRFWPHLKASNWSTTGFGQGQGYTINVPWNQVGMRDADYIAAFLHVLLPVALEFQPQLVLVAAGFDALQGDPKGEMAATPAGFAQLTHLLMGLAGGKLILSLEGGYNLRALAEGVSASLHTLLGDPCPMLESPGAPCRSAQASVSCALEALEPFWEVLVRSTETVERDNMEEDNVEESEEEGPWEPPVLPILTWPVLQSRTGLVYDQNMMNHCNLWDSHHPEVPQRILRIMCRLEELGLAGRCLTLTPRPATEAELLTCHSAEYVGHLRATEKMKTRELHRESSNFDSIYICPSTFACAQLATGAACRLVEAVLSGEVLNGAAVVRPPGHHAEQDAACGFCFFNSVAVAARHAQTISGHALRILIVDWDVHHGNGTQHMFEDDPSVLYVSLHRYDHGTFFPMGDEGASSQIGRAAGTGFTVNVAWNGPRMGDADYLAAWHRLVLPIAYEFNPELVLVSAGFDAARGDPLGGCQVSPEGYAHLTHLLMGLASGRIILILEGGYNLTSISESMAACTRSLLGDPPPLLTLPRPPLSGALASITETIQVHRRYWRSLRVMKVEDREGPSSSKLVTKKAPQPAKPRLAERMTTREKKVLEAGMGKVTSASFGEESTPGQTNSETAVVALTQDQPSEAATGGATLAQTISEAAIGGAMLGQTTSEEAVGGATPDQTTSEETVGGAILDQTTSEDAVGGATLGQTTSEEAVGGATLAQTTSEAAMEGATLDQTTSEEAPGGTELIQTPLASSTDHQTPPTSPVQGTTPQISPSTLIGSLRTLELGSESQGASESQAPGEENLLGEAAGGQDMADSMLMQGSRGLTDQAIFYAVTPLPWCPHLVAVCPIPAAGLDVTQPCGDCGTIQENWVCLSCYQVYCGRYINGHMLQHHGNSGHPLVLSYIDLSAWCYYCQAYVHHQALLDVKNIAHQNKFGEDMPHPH
endpoint: IC50

Fill in: IC50 of COc1cc2nc(C)ccc2cc1-c1cnc([C@H](COCCCC(=O)c2cc(C)on2)NC(=O)[C@H]2CC23CCN(C)CC3)[nH]1 is ___
> 900 nM

More entries:
Entry CCC(=O)CCCOC[C@H](NC(=O)C12CCN(CC1)CC2)c1ncc(-c2cc3ccccc3nc2OC)[nH]1 has what IC50?
> 45000 nM
